conditions: a range is the spread between reports
melting point: recorded values

item-smiles | melting point
OCC1c2ccccc2-c2ccccc21 | 104 to 106 °C
CN(C)c1ccc(C(=O)c2ccc(N(C)C)cc2)cc1 | 175 to 179 °C
N#CCc1ccc([N+](=O)[O-])cc1 | 116 to 117 °C
N#Cc1ccc2c(c1)OCO2 | 93 to 94 °C
C#CCC(C)C | -105 °C
O=C(C=CC=Cc1ccc2c(c1)OCO2)N1CCCCC1 | 131 to 132 °C

Please look at the following compound next.
Challenge: Bench note: what melting point did `Clc1ccc(Cl)c(I)c1` show?
Response given: 21 to 22 °C
